Each entry below carries its reported inhibition at 10 µM.
ASSAY_SYSTEM: GR (Homo sapiens (Human), UniProt P04150)
Sequence (P04150 whole entry): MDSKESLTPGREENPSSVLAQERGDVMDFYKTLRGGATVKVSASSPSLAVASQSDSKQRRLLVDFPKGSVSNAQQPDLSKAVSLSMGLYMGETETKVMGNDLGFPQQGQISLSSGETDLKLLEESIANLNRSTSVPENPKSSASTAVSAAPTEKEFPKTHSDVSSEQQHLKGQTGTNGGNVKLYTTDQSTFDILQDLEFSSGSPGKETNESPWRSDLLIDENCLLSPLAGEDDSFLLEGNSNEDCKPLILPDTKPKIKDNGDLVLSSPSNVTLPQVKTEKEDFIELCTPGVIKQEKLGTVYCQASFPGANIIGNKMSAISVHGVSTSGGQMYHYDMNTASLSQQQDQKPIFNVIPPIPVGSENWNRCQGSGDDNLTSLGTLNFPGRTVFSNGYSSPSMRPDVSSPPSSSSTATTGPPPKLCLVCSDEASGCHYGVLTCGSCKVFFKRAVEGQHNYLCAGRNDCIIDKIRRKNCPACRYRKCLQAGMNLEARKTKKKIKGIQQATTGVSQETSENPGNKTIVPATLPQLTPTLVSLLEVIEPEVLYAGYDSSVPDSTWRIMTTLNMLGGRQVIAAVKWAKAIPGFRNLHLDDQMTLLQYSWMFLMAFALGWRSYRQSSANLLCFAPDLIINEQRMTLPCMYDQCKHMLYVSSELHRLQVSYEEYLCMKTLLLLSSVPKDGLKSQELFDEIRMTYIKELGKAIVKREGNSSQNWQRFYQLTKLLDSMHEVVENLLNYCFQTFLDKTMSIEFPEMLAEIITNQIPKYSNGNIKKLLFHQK
PROTOCOL: GR antagonist assay (GRE-LUC luciferase, transfected COS-7 cells, with 0.1 nM dexamethasone)
Type: cell-based
CONDITION_SET: COS-7, read-out: GR Antagonism % inhibition at 10 μM
QUANTITY: inhibition at 10 µM

>>> df
                                   compound  result
0  CC1(C(=O)NCc2ccc(N3C(=S)N(c4ccc(C#N)c(C(F)(F)F)c4)C(=O)C3(C)C)cc2F)CC1 [Compound 52]     56%
1  CC1(C)C(=O)N(c2ccc(C#N)c(C(F)(F)F)c2)C(=O)N1c1ccc(CNC(=O)c2ncccn2)cc1 [Compound 33]      3%
2  Cc1nnc(C(=O)NCc2ccc(N3C(=S)N(c4ccc(C#N)c(C(F)(F)F)c4)C(=O)C3(C)C)cc2F)o1 [Compound 62]      0%
3  CC1(C)C(=O)N(c2ccc(C#N)c(C(F)(F)F)c2)C(=S)N1c1ccc(CNC(=O)c2ccc3cn[nH]c3c2)c(F)c1 [Compound 80]     38%
4  CC1(C)C(=O)N(c2ccc(C#N)c(C(F)(F)F)c2)C(=S)N1c1cnc(CNC(=O)c2ccccn2)c(F)c1 [Compound 53]     66%
5  CC1(C)C(=O)N(c2ccc(C#N)c(C(F)(F)F)c2)C(=S)N1c1ccc(CNC(=O)c2ccc3[nH]ncc3c2)c(F)c1 [Compound 79]     75%
6  CC1(C)C(=O)N(c2ccc(C#N)c(C(F)(F)F)c2)C(=S)N1c1ccc(CNS(=O)(=O)c2ccccn2)c(F)c1 [Compound 75]     40%

====

ASSAY_SYSTEM: Human AR (Homo sapiens (Human))
Sequence (P10275 whole entry): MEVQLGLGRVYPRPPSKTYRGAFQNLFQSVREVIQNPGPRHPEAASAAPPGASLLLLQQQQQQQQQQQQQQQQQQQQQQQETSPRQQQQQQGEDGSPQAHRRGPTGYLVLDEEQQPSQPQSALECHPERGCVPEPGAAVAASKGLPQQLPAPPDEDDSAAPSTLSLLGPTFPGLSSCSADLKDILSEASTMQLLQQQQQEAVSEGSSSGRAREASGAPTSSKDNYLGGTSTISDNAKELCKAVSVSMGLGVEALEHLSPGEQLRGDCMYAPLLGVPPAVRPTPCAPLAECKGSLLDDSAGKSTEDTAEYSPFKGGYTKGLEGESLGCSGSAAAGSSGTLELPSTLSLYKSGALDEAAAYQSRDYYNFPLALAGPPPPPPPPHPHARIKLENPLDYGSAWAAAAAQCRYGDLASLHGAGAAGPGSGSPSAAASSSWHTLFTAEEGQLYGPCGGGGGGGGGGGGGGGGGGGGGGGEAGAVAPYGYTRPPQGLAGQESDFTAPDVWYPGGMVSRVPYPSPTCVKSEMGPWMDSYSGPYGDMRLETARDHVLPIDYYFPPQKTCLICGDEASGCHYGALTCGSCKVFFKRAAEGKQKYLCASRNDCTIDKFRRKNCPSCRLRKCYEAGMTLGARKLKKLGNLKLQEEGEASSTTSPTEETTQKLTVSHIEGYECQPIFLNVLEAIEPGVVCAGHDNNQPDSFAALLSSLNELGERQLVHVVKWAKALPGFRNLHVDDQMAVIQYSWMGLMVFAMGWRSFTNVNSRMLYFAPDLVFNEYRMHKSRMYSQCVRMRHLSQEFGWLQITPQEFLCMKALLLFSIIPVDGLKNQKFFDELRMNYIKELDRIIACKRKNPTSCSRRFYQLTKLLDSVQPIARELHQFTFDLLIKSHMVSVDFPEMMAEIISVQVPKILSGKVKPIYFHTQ
PROTOCOL: AR antagonist assay (GRE-LUC luciferase, transfected HEK-293 cells, with 0.1 nM R1881)
Format: cell-based
CONDITION_SET: with 0.1 nM R1881
Strictly below 0.1 µM in IC50: class 1. Otherwise: class 0.

>>> df
                             compound_string    group
 0  Cn1nccc1C(=O)NCc1ccc(N2C(=S)N(c3ccc(C#N)c(C(F)(F)F)c3)C(=O)C2(C)C)cc1F  class 1
 1  CC1(C)C(=O)N(c2ccc(C#N)c(C(F)(F)F)c2)C(=S)N1c1ccc(CNC(=O)c2cccnc2)c(F)c1  class 0
 2  CC1(C)C(=O)N(c2cnc(C#N)c(C(F)(F)F)c2)C(=S)N1c1ccc(CNC(=O)c2cncs2)c(Cl)c1  class 0
 3  CC1(C)C(=O)N(c2ccc(C#N)c(C(F)(F)F)c2)C(=S)N1c1ccc(CNC(=O)c2cncs2)c(F)c1  class 1
 4  Cc1ncsc1C(=O)NCc1ccc(N2C(=S)N(c3ccc(C#N)c(C(F)(F)F)c3)C(=O)C2(C)C)cc1F  class 1
 5  Cc1ncsc1C(=O)NCc1ccc(N2C(=S)N(c3ccc(C#N)c(C(F)(F)F)c3)C(=O)C23CCC3)cc1F  class 1
 6  CC1(C)C(=O)N(c2ccc(C#N)c(C(F)(F)F)c2)C(=S)N1c1ccc(CNC(=O)c2cncs2)cc1  class 0
 7  CC1(C)C(=O)N(c2ccc(C#N)c(C(F)(F)F)c2)C(=S)N1c1ccc(CNC(=O)c2nccs2)c(F)c1  class 1
 8  CC1(C)C(=O)N(c2ccc(C#N)c(C(F)(F)F)c2)C(=S)N1c1ccc(CNC(=O)c2cnco2)c(F)c1  class 0
 9  CC1(C)C(=O)N(c2ccc(C#N)c(C(F)(F)F)c2)C(=S)N1c1ccc(CNC(=O)c2ncccn2)c(Cl)c1  class 1
10  CC1(C)C(=O)N(c2ccc(C#N)c(C(F)(F)F)c2)C(=O)N1c1ccc(CNC(=O)c2ccccn2)c(F)c1  class 0
11  CC(C)C(=O)NCc1ccc(N2C(=S)N(c3ccc(C#N)c(C(F)(F)F)c3)C(=O)C2(C)C)cc1F  class 0
12  CC1(C)C(=O)N(c2ccc(C#N)c(C(F)(F)F)c2)C(=S)N1c1ccc(CNC(=O)C2CC2)c(F)c1  class 0
13  CC1(C)C(=O)N(c2cnc(C#N)c(C(F)(F)F)c2)C(=S)N1c1ccc(CNC(=O)c2ncccn2)c(Cl)c1  class 1
14  CC1(C)C(=O)N(c2ccc(C#N)c(C(F)(F)F)c2)C(=S)N1c1ccc(CNC(=O)c2ncccn2)cc1  class 0
15  Cc1ncsc1C(=O)NCc1ccc(N2C(=S)N(c3ccc(C#N)c(F)c3)C(=O)C2(C)C)cc1F  class 0
16  CC1(C)C(=O)N(c2ccc(C#N)c(C(F)(F)F)c2)C(=O)N1c1ccc(CNC(=O)c2cncs2)cc1  class 0
17  Cc1ncsc1C(=O)NCc1ccc(N2C(=S)N(c3cnc(C#N)c(C(F)(F)F)c3)C(=O)C2(C)C)cc1Cl  class 0
18  CC(C)C(=O)NCc1ccc(N2C(=O)N(c3ccc(C#N)c(C(F)(F)F)c3)C(=O)C2(C)C)cc1F  class 0
